Just for reference, patent US10399940B2 is where these values come from.

system-under-test: F508delCFTR (Homo sapiens, UniProt P13569, DEL508-508)
Construct: expressed in transfected cells; host or cells: CFBE41o- (human lung derived epithelial cell line), doxycycline-inducible expression
Sequence (P13569 with tags, fused parts or gaps DEL508-508): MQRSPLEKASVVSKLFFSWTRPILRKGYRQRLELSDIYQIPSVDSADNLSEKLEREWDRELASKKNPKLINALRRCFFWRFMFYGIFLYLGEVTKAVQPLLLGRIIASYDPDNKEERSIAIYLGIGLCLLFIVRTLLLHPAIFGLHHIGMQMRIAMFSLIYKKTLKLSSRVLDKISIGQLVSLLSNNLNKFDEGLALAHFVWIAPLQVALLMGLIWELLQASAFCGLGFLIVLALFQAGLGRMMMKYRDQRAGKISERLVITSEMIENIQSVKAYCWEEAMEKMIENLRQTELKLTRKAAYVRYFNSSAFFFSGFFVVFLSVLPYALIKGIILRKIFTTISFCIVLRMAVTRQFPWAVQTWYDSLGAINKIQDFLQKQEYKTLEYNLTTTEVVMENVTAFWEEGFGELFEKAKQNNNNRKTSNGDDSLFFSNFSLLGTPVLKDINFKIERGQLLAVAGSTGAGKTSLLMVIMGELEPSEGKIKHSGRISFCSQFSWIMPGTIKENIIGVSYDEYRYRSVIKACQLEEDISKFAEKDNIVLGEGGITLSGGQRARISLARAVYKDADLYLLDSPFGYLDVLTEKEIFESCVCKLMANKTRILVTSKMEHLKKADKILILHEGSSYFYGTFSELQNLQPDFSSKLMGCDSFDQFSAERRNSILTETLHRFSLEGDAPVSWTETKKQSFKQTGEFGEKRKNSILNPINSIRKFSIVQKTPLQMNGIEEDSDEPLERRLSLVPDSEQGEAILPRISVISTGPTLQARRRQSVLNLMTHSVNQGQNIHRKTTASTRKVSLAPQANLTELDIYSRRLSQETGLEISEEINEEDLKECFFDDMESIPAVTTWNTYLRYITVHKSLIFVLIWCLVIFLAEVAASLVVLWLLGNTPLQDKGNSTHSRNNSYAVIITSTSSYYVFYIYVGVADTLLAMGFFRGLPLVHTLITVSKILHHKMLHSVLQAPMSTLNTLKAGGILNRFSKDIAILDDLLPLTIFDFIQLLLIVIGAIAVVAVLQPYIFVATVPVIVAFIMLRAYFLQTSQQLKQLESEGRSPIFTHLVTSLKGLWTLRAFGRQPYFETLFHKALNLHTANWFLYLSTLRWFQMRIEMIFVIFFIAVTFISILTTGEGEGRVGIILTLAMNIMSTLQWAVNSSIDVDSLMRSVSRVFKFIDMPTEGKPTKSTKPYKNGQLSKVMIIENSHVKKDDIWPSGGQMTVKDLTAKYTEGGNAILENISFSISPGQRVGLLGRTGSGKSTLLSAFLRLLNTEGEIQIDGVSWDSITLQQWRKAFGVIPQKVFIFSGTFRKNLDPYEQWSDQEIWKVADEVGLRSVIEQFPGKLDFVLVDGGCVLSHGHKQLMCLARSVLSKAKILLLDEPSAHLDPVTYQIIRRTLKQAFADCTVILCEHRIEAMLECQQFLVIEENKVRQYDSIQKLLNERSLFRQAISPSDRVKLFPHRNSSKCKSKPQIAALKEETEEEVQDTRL
assay: Cell Surface Expression-Horse Radish Peroxidase (CSE-HRP) assay;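 as to Maximum % activity (without co-corrector): % of on-plate positive control (2 µM of the co-corrector compound) after DMSO subtraction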
Assay type: cell-based
condition-info: CFBE41o-F508delCFTR-HRP cells; without co-corrector; normalized to on-plate positive control; highest concentration 20 μM
assay-readout: Maximum % activity (without co-corrector)

What does the record list as Maximum % activity (without co-corrector) for COc1ccc(C(F)(F)F)cc1C(CO[C@H]1[C@H](C(C)(C)C)[C@@H](C(=O)O)N(C(=O)[C@@H]2CCCCO2)[C@H]1c1ccccc1C)OC (some centres unmarked) ?
+++ (≥200)

Next entry: COc1ncc(C(F)(F)F)cc1CO[C@H]1[C@H](C(C)(C)C)[C@@H](C(=O)O)N(C(=O)[C@@H]2CCCCO2)[C@H]1c1ccccc1-c1ccc(=O)n(C)c1
+ (<100)

And for COc1ncc(C2CCC2)cc1CO[C@H]1[C@H](C(C)(C)C)[C@@H](C(=O)O)N(C(=O)O[C@@H](C)C(F)(F)F)[C@H]1c1cccnc1OC(C)C ?
++ (≥100 and <200)

Now this one: COc1cc(OC)nc(CO[C@@H]2[C@@H](C(C)(C)C)[C@H](C(=O)O)N(C(=O)C3CCCCC3)[C@@H]2c2ccccc2)n1 (racemic)
++ (≥100 and <200)

Let us now turn to COc1ccc(C2(C)CCC2)cc1CO[C@H]1[C@H](C(C)(C)C)[C@@H](C(=O)O)N(C(=O)OC(C)C)[C@H]1c1cccnc1OC(C)C
+++ (≥200)

Next:
Entry COc1ncc(C2CCC2)cc1CO[C@H]1[C@H](C(C)(C)C)[C@@H](C(=O)O)N(C(=O)[C@@H]2CCCCO2)[C@H]1c1ccccc1C : reported Maximum % activity (without co-corrector) = ?
+++ (≥200)

Also need COc1ncc(C(F)(F)F)cc1CO[C@H]1[C@H](C(C)(C)C)[C@@H](C(=O)O)N(C(=O)[C@@H]2CCCO2)[C@H]1c1ccccc1 , thanks.
++ (≥100 and <200)

Next molecule up: COc1ncc(C(F)(F)F)cc1CO[C@H]1[C@H](C(C)(C)C)[C@@H](C(=O)O)N(C(=O)[C@@H]2CCCCO2)[C@H]1c1ccccc1-c1cnn(C)c1
++ (≥100 and <200)

Field entry: COc1ncc(C(F)(F)F)cc1CO[C@H]1[C@H](C(C)(C)C)[C@@H](C(=O)O)N(C(=O)[C@@H]2CCCCO2)[C@H]1c1ccccc1-c1ccoc1
+++ (≥200)

Also COc1ncc(C2CCC2)cc1CO[C@H]1[C@H](C(C)(C)C)[C@@H](C(=O)O)N(C(=O)C2(C(F)(F)F)CCCC2)[C@H]1c1cccnc1OC(C)C ?
+ (<100)

Can you handle COc1ncc(C2CCC2)cc1CO[C@H]1[C@H](C(C)(C)C)[C@@H](C(=O)O)N(C(=O)[C@@H]2CCCO2)[C@H]1c1ccccc1C(F)(F)F next?
++ (≥100 and <200)

----------
system-under-test: F508delCFTR (Homo sapiens, UniProt P13569, DEL508-508)
Construct: expressed in transfected cells; host or cells: CFBE41o- (human lung derived epithelial cell line), doxycycline-inducible expression
assay: Cell Surface Expression-Horse Radish Peroxidase (CSE-HRP) assay
Type: cell-based
condition-info: CFBE41o-F508delCFTR-HRP cells; with co-corrector (2 μM of 3-[(2R,4R)-4-({[1-(2,2-difluoro-1,3-benzodioxol-5-yl)cyclopropyl]carbonyl}amino)-7-methoxy-3,4-dihydro-2H-chromen-2-yl]benzoic acid); read-out: EC50 (with co-corrector)
Provide the recorded EC50 for the entries that follow.

// returns reported EC50 for input [2H]C([2H])(O[C@H]1[C@H](C(C)(C)C)[C@@H](C(=O)O)N(C(=O)[C@@H]2CCCCO2)[C@H]1c1ccccc1C)c1cc(C(C)(C)C)ccc1OC [Example 235]
< 1000 nM

Also, COc1ccc(OC(F)(F)F)cc1CO[C@H]1[C@H](C(C)(C)C)[C@@H](C(=O)O)N(C(=O)[C@@H]2CCCCO2)[C@H]1c1ccccc1C [Example 224] please.
< 1000 nM

Another: COc1ncc(C(F)(F)F)cc1CO[C@H]1[C@H](C(C)(C)C)[C@@H](C(=O)O)N(C(=O)OC(C)C)[C@H]1c1ccccc1C1CC1 [Example 92]
1000 to 10000 nM

Repeat with COc1ncc(C(F)(F)F)cc1CO[C@H]1[C@H](C(C)(C)C)[C@@H](C(=O)O)N(C(=O)OC(C)C)[C@H]1c1ccccc1Cl [Example 99]
1000 to 10000 nM

Now this one: COc1ccc(Br)cc1CO[C@H]1[C@H](C(C)(C)C)[C@@H](C(=O)O)N(C(=O)[C@@H]2CCC[C@@H](OC)C2)[C@H]1c1ccccc1 [Example 37]
1000 to 10000 nM

Moving on to COc1ccc(C(C)(C)C)cc1CO[C@H]1[C@H](C(C)(C)C)[C@@H](C(=O)O)N(C(=O)[C@@H]2CCCCO2)[C@H]1c1cccnc1OC(C)C [Example 285]
< 1000 nM

What do you have for COc1ncc(C(F)(F)F)cc1CO[C@H]1[C@H](C(C)(C)C)[C@@H](C(=O)O)N(C(=O)[C@@H]2CCCO2)[C@H]1c1ccccc1C(C)C [Example 98] ?
< 1000 nM

Follow-up entry: COc1ncc(C2CCC2)cc1CO[C@H]1[C@H](C(C)(C)C)[C@@H](C(=O)O)N(C(=O)OC(C)C(F)(F)F)[C@H]1c1cccnc1OC(C)C (stereo partly drawn) [Example 265]
< 1000 nM

Now consider COc1ccc(C(F)(F)F)cc1CO[C@H]1[C@H](C(C)(C)C)[C@@H](C(=O)O)N(C(=O)OC(C)C)[C@H]1c1cccnc1OC(C)C [Example 78] .
1000 to 10000 nM

Repeat for the following compound: COc1nc(C(C)(C)C)ccc1CO[C@H]1[C@H](C(C)(C)C)[C@@H](C(=O)O)N(C(=O)[C@@H]2CCCCO2)[C@H]1c1cccnc1OC(C)C [Example 290]
< 1000 nM

Same again, this time with COc1ncc(N2CC(F)(F)C2)cc1CO[C@H]1[C@H](C(C)(C)C)[C@@H](C(=O)O)N(C(=O)OC(C)C)[C@H]1c1ccccc1 [Example 84]
1000 to 10000 nM

Likewise for COc1ncc(C(F)(F)F)cc1CO[C@H]1[C@H](C(C)(C)C)[C@@H](C(=O)O)N(C(=O)[C@@H]2CCCCO2)[C@H]1c1ccccc1-c1cccc(OC(F)(F)F)c1 [Example 201] ?
1000 to 10000 nM

----------
system-under-test: F508delCFTR (Homo sapiens, UniProt P13569, DEL508-508)
Construct: expressed in transfected cells; host or cells: CFBE41o- (human lung derived epithelial cell line), doxycycline-inducible expression
assay: Cell Surface Expression-Horse Radish Peroxidase (CSE-HRP) assay;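 as to Maximum % activity (without co-corrector): % of on-plate positive control (2 µM of the co-corrector compound) after DMSO subtraction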
Assay type: cell-based
condition-info: CFBE41o-F508delCFTR-HRP cells; without co-corrector; normalized to on-plate positive control; highest concentration 20 μM
Text: Cell Surface Expression-Horse Radish Peroxidase (CSE-HRP) Assay […] The maximum % activity achieved for the test compound either without or with a co-corrector at any tested concentration is presented in Table 1 along with the respective EC50's calculated using the following general sigmoidal curve with variable Hill slope equation (described as Model 42 in the Accelrys® Assay Explorer v3.3 software): y=(a−d)/(1+(x/c)^b)+d […]
assay-readout: Maximum % activity (without co-corrector)

Sample answers from the record:
Look at this molecule and give its reported Maximum % activity (without co-corrector). COc1ncc(C(F)(F)F)cc1CO[C@H]1[C@H](C(C)(C)C)[C@@H](C(=O)O)N(C(=O)C2CCOCC2)[C@H]1c1ccccc1C(C)C
++ (≥100 and <200)

Entry COc1ncc(C(C)(C)C)cc1CO[C@H]1[C@H](C(C)(C)C)[C@@H](C(=O)O)N(C(=O)OC(C)C)[C@H]1c1cccc(Cl)c1 please
+ (<100)

Another molecule to check: COc1ccc(C(C)(C)C)cc1CO[C@H]1[C@H](C(C)(C)C)[C@@H](C(=O)O)N(C(=O)[C@@H]2CCCO2)[C@H]1c1ccccc1Br
+++ (≥200)

Ok, now COc1ncc(C2CCC2)cc1CO[C@H]1[C@H](C(C)(C)C)[C@@H](C(=O)O)N(C(=O)[C@@H]2CCCO2)[C@H]1c1ccccc1C(C)C
++ (≥100 and <200)

Try the molecule COc1ccc(C(C)(C)C)cc1CO[C@H]1[C@H](C(C)(C)C)[C@@H](C(=O)O)N(C(=O)[C@@H]2CCCCO2)[C@H]1c1cccnc1OC(C)C
+++ (≥200)

Turning now to a further record.
# input molecule: COc1ccc(C(F)(F)F)cc1CO[C@@H]1[C@@H](C(C)(C)C)[C@H](C(=O)O)N(C(=O)N(C(C)C)C(C)C)[C@@H]1c1ccccc1 (single isomer, unassigned) ; wanted: its Maximum % activity (without co-corrector)
+ (<100)
